Values were extracted from paper PMC10654576.

target: KRAS^G12V (Homo sapiens, UniProt P01116, G12V); construct: Monomer (2-188); host or cells: E. coli; experiment: FRET-Probe isothermal chemical denaturation (ICD) assay, KRAS^G12V; assay type: binding; settings: 50 nM KRAS^G12V, pH 5 denaturation buffer, 120 min
pEC50: −log10 of the molar value.
metric: pEC50

[[record]]
compound = "Nc1nc2c(ncn2[C@@H]2O[C@H](COP(=O)(O)OP(=O)(O)OP(=O)(O)O)[C@@H](O)[C@H]2O)c(=O)[nH]1 [GTP, guanosine-5'-triphosphate]"
metric = "pEC50"
observed = 8.34


====

molecular target: MDH (Sus scrofa); construct: purchased Sigma-Aldrich (St. Louis, MO, USA); test: FRET-Probe isothermal chemical denaturation (ICD) assay, MDH; format: binding; details: 25 nM MDH, 30–50% 1-propanol, 60 min incubation
Sequence (P00346 25-338): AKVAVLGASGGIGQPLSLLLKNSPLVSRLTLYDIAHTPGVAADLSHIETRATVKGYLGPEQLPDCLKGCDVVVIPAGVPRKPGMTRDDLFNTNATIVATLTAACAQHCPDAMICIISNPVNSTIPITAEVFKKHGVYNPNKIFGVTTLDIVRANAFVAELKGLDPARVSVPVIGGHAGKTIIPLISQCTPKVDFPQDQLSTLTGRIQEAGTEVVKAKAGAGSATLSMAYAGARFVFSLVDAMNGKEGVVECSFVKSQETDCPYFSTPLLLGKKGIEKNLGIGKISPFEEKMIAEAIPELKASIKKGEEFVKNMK
metric: EC50

[[record]]
compound_structure_string = "NC(=O)C1=CN([C@@H]2O[C@H](COP(=O)(O)OP(=O)(O)OC[C@H]3O[C@@H](n4cnc5c(N)ncnc54)[C@H](O)[C@@H]3O)[C@@H](O)[C@H]2O)C=CC1"
test_target = "MDH (Sus scrofa)"
observed = "29 to 38 µM"

